procedure_text: NCI Yeast Anticancer Drug Screen. Data for the bub3 strain (AID 167)
condition_details: S. cerevisiae bub3 mutant strain, at 50.0 µM, active compounds read high
About 79,000 compounds went through this panel and 15% of them were active in at least one assay; those are over-represented in the sample as a whole.
# reported growth inhibition; entries follow
readout: growth inhibition (%)

1. COc1ccc(S(=O)(=O)F)cc1NC(=O)CCc1ccc(N2C(N)=NC(N)=NC2(C)C)cc1Cl ... 4.7
2. CC1(C)N=C(N)N=C(N)N1c1ccc(CCc2cc(Cl)ccc2S(=O)(=O)F)c(Cl)c1 ... 99.3
3. CC1=CC(=Nc2ccc(N(CCCl)CCCl)cc2)C=CC1=O ... -7.9
4. O=C(O)CCCO ... 1.45
5. CC1(C(=O)O)OC1c1ccccc1 (stereo not given) ... 10.2
6. Cc1ccc(OP(=O)(Oc2ccc(C)cc2)Oc2ccc(C)cc2)cc1.Cc1ccc(OP(=O)(Oc2ccc(C)cc2)Oc2ccc(C)cc2)cc1.[Cl][Cr]([Cl])[Cl] ... 0.9
7. CN(N)/N=N/c1nc[nH]c1[N+](=O)[O-] ... -12.1
8. O=NNc1cc(=O)[nH]c(=O)[nH]1 ... -7.6
9. C[C@]12CC[C@@H](O)C[C@H]1[C@@H](O)C[C@@H]1[C@@H]2CC[C@]2(C)C(=O)CC[C@@H]12 ... 25.7
10. CN(C)P(=O)(N(C)C)N1CCCCC1 ... -23.6

###

procedure_text: NCI Yeast Anticancer Drug Screen. Data for the rad50 strain (AID 155);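 note: 0% = growth of vehicle-only cultures of the same strain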
condition_details: S. cerevisiae rad50 strain growth inhibition; at 50.0 µM; active compounds read high
Experimental: Growth inhibition of yeast strains with defined genetic alterations is measured as a screen for potential anti-cancer activity. Selected strains with alterations in DNA damage repair or cell cycle control were exposed to compounds and growth inhibition was measured relative to vehicle treated controls. The strain used in this assay is rad50
This is part of a sample that, as a whole, favours compounds with a hit. Of some 79,000 tested, about 15% had one in any assay. Activity calls are given as the source filed them. No stated cut-off is given here; in the data, active means growth inhibition above about 70%; inactive means the rest.
# reported growth inhibition; entries follow
readout: growth inhibition

1. O=NNc1ccc(C(F)(F)F)cn1 ... -7.95% (inactive)
2. CC(C)(C)NP(=O)(NC(C)(C)C)NC(C)(C)C ... 5.65% (inactive)
3. CCCOC(=O)c1ccccc1N ... 6.05% (inactive)
4. COc1cc2cc(c1Cl)N(C)C(=O)CC(OC(=O)C(C)C)C1(C)OC1C(C)C1CC(O)(NC(=O)O1)C(OC)/C=C/C=C(C)C2 (centres undefined) ... -15.9% (inactive)
5. O=C1NC2C(=CC(O)C(O)C2O)c2cc3c(cc21)OCO3 (centres undefined) ... 29.9% (inactive)
6. CNCC(C)c1ccccc1OC (centres undefined) ... -9.6% (inactive)
7. COc1cccc(N=C(N)N[N+](=O)[O-])c1 ... -13.2% (inactive)
8. CCC(=O)C(CC(C)[N+](C)(C)C)(c1ccccc1)c1ccccc1 (centres undefined) ... -3.05% (inactive)
9. O=C(O)C(O)(Cl)c1cccs1 (centres undefined) ... -0.5% (inactive)
10. NC1CC(O)C(O)CC1c1ccc2c(c1)OCO2 (centres undefined) ... -26.5% (inactive)
11. Cc1ccc(C)c(C(C)NC2=NCCO2)c1 (centres undefined) ... -3.95% (inactive)
12. O=[N+]([O-])C1(Cl)CCC(Cl)([N+](=O)[O-])CC1 (centres undefined) ... 5.85% (inactive)
13. CC(=O)CC(C)=O.CC(=O)CC(C)=O.CC(=O)CC(C)=O.[La] ... 27.8% (inactive)
14. CO[C@@]12[C@H](COC(N)=O)C3=C(C(=O)C(C)=C(NCCO)C3=O)N1C[C@@H]1N[C@@H]12 ... 3.75% (inactive)
15. [I][Hg][CH]1CCC2CCCC1O2 (centres undefined) ... 99.7% (active)
16. CC(C)=CC1CC(=[N+]=[N-])C(=O)C1(C)C (centres undefined) ... 33.5% (inactive)
17. CN1CN(c2ccccc2)C2(CCN(CCC3Oc4ccccc4O3)CC2)C1=O ... -22.4% (inactive)
18. CCCCOCN(CCc1ccccc1)COCCCC ... 15.7% (inactive)
19. O=c1c(O)c(-c2ccccc2)oc2ccccc12 ... 12.6% (inactive)
20. [I][Ni][I].c1ccc([PH+](c2ccccc2)c2ccccc2)cc1.c1ccc([PH+](c2ccccc2)c2ccccc2)cc1 ... 21% (inactive)
21. O=C(C(F)(F)Cl)C(F)(F)Cl ... 13.8% (inactive)
22. O=[As](c1ccccc1)(c1ccccc1)c1ccc(Br)cc1 ... 31.1% (inactive)
23. O=C1NC(=O)C(Cc2cccc(OCc3ccccc3)c2)C(=O)N1 ... 20.1% (inactive)
24. O=C(NC(c1ccccc1)(c1ccccc1)c1ccccc1)N(CCCl)CCCl ... 5.95% (inactive)

###

procedure_text: NCI Yeast Anticancer Drug Screen. Data for the sgs1 mgt1 strain (AID 161);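 note: 0% = growth of cultures given vehicle only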
condition_details: S. cerevisiae sgs1 mgt1 strain, at 50.0 µM, active compounds read high
The panel holds about 79,000 compounds, 15% with a hit somewhere; the sample as a whole holds those more often.
readout: growth inhibition (%)

1) CC(Cl)CN1CCN(CC(C)Cl)CC1 (stereo unspecified) ... 34.4
2) CCCOC(=O)C(C)(C)C(OP(OCCC)OCCC)=C(C)C ... -2.5
3) c1cc2c(cc1[C@@H]1OC[C@@H]3[C@H]1CO[C@H]3c1ccc3c(c1)OCO3)OCO2 ... 47.2
4) Nc1ccc(CCC(=O)Nc2ccc(S(=O)(=O)F)cc2)c(Cl)c1 ... 85.3
5) CN1CN(c2ccccc2)C2(CCN(CCCCCCF)CC2)C1=O ... -19.4
6) Cc1cc(C)[c]([Hg][Cl])c(C)c1 ... 98.7
7) NC1CCCC[C@H]1N.N[C@@H]1CCCC[C@@H]1N.O=C(P(=O)([O-])[O-])P(=O)([O-])[O-].[Pt+4].[Pt+4] ... -13.7
8) CC(CCOc1ccc2ccc(=O)oc2c1)C1=CC(=O)C(C)(C)O1 (stereo unspecified) ... 21.1
9) O=P(Oc1ccccc1)(N1CCCC1)N1CCCC1 ... 11.9
10) CS(=O)(=O)c1ccc([As](=O)(O)O)cc1 ... 20.6
11) CC(C)(C)c1cc(C=C(C#N)C#N)cc(C(C)(C)C)c1O ... 7.55

###

procedure_text: NCI Yeast Anticancer Drug Screen. Data for the mlh1 rad18 strain (AID 175)
condition_details: S. cerevisiae mlh1 rad18 strain growth inhibition; at 50.0 µM; active compounds read high
This is part of a sample that, as a whole, favours compounds with a hit. Of some 79,000 tested, about 15% had one in any assay.
readout: growth inhibition (%)

1. COc1ccc2c(c1OC)C[N+]1(C)CCc3cc4c(cc3C1=C2)OCO4 (configuration not stated) ... -2
2. COP(=O)(OC)O/C(=C(/OP(=O)(OC)OC)c1ccccc1)c1ccccc1 ... 25.1
3. CCCC(=O)OC1C(c2ccc(=O)oc2)C2(C)CCC3C(CCC4CC(OC(C)=O)CCC43C)C23OC13 (configuration not stated) ... 0.2
4. ClC1=C(Cl)C2(Cl)C3C4CC(C5OC45)C3C1(Cl)C2(Cl)Cl (configuration not stated) ... -6.8
5. CCCCNC(=O)C(Cl)Cl ... 13.9
6. NC1Cc2cc(O)ccc2C1=O (configuration not stated) ... 0.7
7. O=C(O)C(Cl)C(=O)O ... -13.9
8. CN(C)C(=O)Oc1ccc(Cl)cc1Cl ... 32.6
9. CC(Nc1c([N+](=O)[O-])ccc(C(=O)NCCN(C)C)c1[N+](=O)[O-])C(=O)Nc1ccc(N(CCCl)CCCl)cc1 (configuration not stated) ... -7.75
10. O=C1/C(=C\c2ccc([N+](=O)[O-])cc2)N2CCC1CC2 ... 7.05
11. O=C/C=C/c1ccco1 ... 31.8
12. CC(C)CCN(CCc1ccccc1[N+](=O)[O-])CCC(C)C ... 38.6

###

procedure_text: NCI Yeast Anticancer Drug Screen. Data for the bub3 strain (AID 167)
condition_details: S. cerevisiae bub3 mutant strain, at 50.0 µM, active compounds read high
About 79,000 compounds went through this panel and 15% of them were active in at least one assay; those are over-represented in the sample as a whole.
# reported growth inhibition; entries follow
readout: growth inhibition (%)

1. CCN(CC)C(=S)Cl ... 19.1
2. COC(=O)CCCCCCCCCCN(CCCl)CCCl ... 21
3. O=C(CCC1C(=O)NC(=S)NC1=O)c1ccc2ccccc2c1 ... -7.95
4. CCCCCCCCCCOC(=O)c1ccccc1C(=O)OCCCCCCCCCC ... -11.2
5. NC1CC2NC3CCCCC3NC2CC1N (configuration not stated) ... -22.4
6. Cc1ccc(OP(=O)(Oc2ccc(C)cc2)Oc2ccc(C)cc2)cc1.Cc1ccc(OP(=O)(Oc2ccc(C)cc2)Oc2ccc(C)cc2)cc1.Cc1ccc(OP(=O)(Oc2ccc(C)cc2)Oc2ccc(C)cc2)cc1.Cc1ccc(OP(=O)(Oc2ccc(C)cc2)Oc2ccc(C)cc2)cc1.[O-][Cl+3]([O-])([O-])O.[Zn+2] ... 5.1
7. CC(O)CN(CCN(CC(C)O)CC(C)O)CC(C)O.[Cl-].[Zn+2] (configuration not stated) ... 8.8
8. COP(=O)(OC)C(O)C(Br)(Br)Br (configuration not stated) ... 11.7
9. O=C1CC(=O)NC(=S)N1 ... 4.85
10. NC(C/C=C/P(=O)(O)O)C(=O)O (configuration not stated) ... 19.9
11. CN(C)C(=O)NC(O)C(Cl)(Cl)Cl (configuration not stated) ... -4.25
12. Cc1cc(S(=O)(=O)F)ccc1NC(=O)NCc1ccc([N+](=O)[O-])cc1 ... 18.1
13. CCN(c1ccccc1)P(I)(c1ccccc1)(c1ccccc1)c1ccccc1 ... 98.2
14. C/C(=N\NS(=O)(=O)c1ccc(C)cc1)C(CN(C)C)C(c1ccccc1)c1c(O)c2ccccc2oc1=O (configuration not stated) ... 54.7
15. Nc1cc([N+](=O)[O-])cc([N+](=O)[O-])c1 ... 2.5
16. Cc1ncc([N+](=O)[O-])n1C(C)C(=O)Nc1ccc(N(CCCl)CCCl)cc1 (configuration not stated) ... -4.65
17. O=C1NCN(c2ccccc2)C12CCN(CCCS(=O)(=O)c1ccccc1)CC2 ... 3.5
18. Cc1ccccc1-n1c(C)nc2ccccc2c1=O ... 1.5
19. C1CCC(N2CSC3CCCCC32)CC1 (configuration not stated) ... 16.2
20. COCC(C)OC(=O)Cc1ccccc1 (configuration not stated) ... -49.1
21. COC12CC3(C)C(C4=CC(=O)OC4)CCC3(O)C3CCC4=CC(=O)CCC4(CO1)C32 (configuration not stated) ... -16.9
22. [Au].[NH-]CC[NH-].[NH-]CC[NH-] ... -0.55
